Target: T1, human MCAM, full length, expressed on transfected cells (human, UniProt P43121 24-646)
T1 construct: CHO cells transfected with the full length human MCAM gene; also called hMCAM; CD146
T1 chain: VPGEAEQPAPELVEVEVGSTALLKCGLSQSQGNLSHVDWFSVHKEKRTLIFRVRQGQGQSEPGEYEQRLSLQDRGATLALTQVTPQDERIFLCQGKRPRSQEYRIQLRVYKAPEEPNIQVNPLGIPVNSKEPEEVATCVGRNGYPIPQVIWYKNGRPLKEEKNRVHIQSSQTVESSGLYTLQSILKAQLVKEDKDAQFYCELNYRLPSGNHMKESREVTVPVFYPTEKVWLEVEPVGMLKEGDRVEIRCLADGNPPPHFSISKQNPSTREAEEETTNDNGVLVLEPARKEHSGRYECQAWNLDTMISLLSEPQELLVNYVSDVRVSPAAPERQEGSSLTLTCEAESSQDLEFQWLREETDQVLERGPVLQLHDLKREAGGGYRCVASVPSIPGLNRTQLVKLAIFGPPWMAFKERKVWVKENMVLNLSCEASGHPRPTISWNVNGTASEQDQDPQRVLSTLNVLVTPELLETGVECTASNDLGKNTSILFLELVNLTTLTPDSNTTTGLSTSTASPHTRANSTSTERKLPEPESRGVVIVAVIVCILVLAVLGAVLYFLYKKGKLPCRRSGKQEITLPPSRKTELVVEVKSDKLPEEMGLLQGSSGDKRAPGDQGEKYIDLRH
Assay: laminin/FACS assay: blocking of laminin 411 binding to hMCAM expressing CHO cells; relative to rodent 2120
Known Fold over rodent (Blocking, Expt#2) of a selection of binders
Kindly answer with a numeric value in fold, unit omitted.

Observe how each entry below is paired with its result.
1. h2120_VH4 + h2120_VL3 (antibody, human IgG1, V domains shown, also called N-Q deamidate VH + conservative VL) VH: QVTLKESGPVLVKPTETLTLTCTVSGFSLTSQGVSWVRQPPGKALEWIAAISSGGTTYYNSAFKSRLTISRDTSKSQVVLTMTNMDPVDTATYYCARRYGYGWYFDFWGQGTLVTVSS VL: DIQMTQSPSSLSASVGDRVTINCKASQNIYNSLAWYQQKPGKAPKVLIFNANSLQTGIPSRFSGSGSGTDFTLTISSLQPEDFATYYCQQFYSGYTFGQGTKLEIK ... 5.6
2. h2120_VH1 + h2120_VL2 (antibody, human IgG1, V domains shown, also called Standard VH + aggressive VL) VH: QVTLKESGPVLVKPTETLTLTCTVSGFSLTSNGVSWVRQPPGKALEWIAAISSGGTTYYNSAFKSRLTISRDTSKSQVVLTMTNMDPVDTATYYCARRYGYGWYFDFWGQGTLVTVSS VL: DIQMTQSPSSLSASVGDRVTITCKASQNIYNSLAWYQQKPGKAPKVLIFNANSLQTGVPSRFSGSGSGTDFTLTISSLQPEDFATYYCQQFYSGYTFGQGTKLEIK ... 12.6
3. h2120_VH1 + h2120_VL1 (antibody, human IgG1, V domains shown, also called Standard VH + standard VL) VH: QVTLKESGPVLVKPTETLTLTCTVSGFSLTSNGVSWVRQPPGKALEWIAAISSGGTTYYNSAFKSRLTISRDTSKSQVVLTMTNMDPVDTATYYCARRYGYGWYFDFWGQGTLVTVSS VL: DIQMTQSPSSLSASVGDRVTITCKASQNIYNSLAWYQQKPGKAPKVLIFNANSLQTGIPSRFSGSGSGTDFTLTISSLQPEDFATYYCQQFYSGYTFGQGTKLEIK ... 3.5

What Fold over rodent (Blocking, Expt#2) value was documented for this binder, h2120_VH1 + h2120_VL3 (antibody, V domains shown, Humanized V regions cloned into expression vectors containing human CK (VL) or human IgG1 (VH); expressed in 293F cells; also called Standard VH + conservative VL; VH1VL3) VH: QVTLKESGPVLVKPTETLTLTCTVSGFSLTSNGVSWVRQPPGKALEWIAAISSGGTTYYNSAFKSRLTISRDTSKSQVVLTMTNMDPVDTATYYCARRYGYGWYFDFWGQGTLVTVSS VL: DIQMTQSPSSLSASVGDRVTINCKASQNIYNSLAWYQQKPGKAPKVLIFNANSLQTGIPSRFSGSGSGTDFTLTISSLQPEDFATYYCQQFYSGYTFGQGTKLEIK ? 2.8

Same read-out for h2120_VH5 + h2120_VL3 (antibody, V domains shown, also called h2120VH5VL3; VH5VL3) VH: QVTLKESGPVLVKPTETLTLTCTVSGFSLTSNAVSWVRQPPGKALEWIAAISSGGTTYYNSAFKSRLTISRDTSKSQVVLTMTNMDPVDTATYYCARRYGYGWYFDFWGQGTLVTVSS VL: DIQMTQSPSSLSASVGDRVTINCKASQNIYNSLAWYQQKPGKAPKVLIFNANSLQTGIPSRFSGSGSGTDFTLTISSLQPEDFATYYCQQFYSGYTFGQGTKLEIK ? 1.5

// data source = patent US20150259419A1
